// data source = patent US20220226425A1

assayed.system: melanocortin 3 receptor (human, UniProt P41968 1-323)
Sequence (P41968 whole entry): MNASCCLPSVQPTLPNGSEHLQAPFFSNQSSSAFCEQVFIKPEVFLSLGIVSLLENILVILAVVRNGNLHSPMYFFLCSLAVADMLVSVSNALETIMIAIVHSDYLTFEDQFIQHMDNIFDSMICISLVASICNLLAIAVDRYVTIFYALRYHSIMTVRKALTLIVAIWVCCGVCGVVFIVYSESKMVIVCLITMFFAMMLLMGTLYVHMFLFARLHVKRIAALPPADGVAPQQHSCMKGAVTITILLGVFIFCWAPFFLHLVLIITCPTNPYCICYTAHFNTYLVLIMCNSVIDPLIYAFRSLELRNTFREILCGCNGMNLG
test.description: cell-based or functional assay
Bridges are numbered along the chain shown (N, C = ends). [ ]: non-standard residue; d: D form. Pen = CC(C)(S)[C@H](N)C(=O)O; hCys = N[C@@H](CCS)C(=O)O
List of EC-50 (nM), cAMP accumulation values.

| binder | EC-50 (nM), cAMP accumulation |
| --- | --- |
| Ac-R[hCys]T[dF]RW[Pen]-NH2 (disulfide 2-7; SMILES CC(=O)N[C@@H](CCCNC(=N)N)C(=O)N[C@H]1CCSSC(C)(C)[C@@H](C(N)=O)NC(=O)[C@H](Cc2c[nH]c3ccccc23)NC(=O)[C@H](CCCNC(=N)N)NC(=O)[C@@H](Cc2ccccc2)NC(=O)[C@H]([C@@H](C)O)NC1=O) [001574C, Ac-Arg-(hCys-Thr-D-Phe-Arg-Trp-Pen)-NH2] | > 3000 nM |
| Ac-R[hCys]S[dF]RW[Pen]-NH2 (disulfide 2-7; SMILES CC(=O)N[C@@H](CCCNC(=N)N)C(=O)N[C@H]1CCSSC(C)(C)[C@@H](C(N)=O)NC(=O)[C@H](Cc2c[nH]c3ccccc23)NC(=O)[C@H](CCCNC(=N)N)NC(=O)[C@@H](Cc2ccccc2)NC(=O)[C@H](CO)NC1=O) [001556C, Ac-Arg-(hCys-Ser-D-Phe-Arg-Trp-Pen)-NH2] | > 3000 nM |
| Ac-R[hCys]N[dF]RW[Pen]-NH2 (disulfide 2-7) [001554C, Ac-Arg-(hCys-Asn-D-Phe-Arg-Trp-Pen)-NH2] | > 3000 nM |
